- measurement.description: Chemical stability during PAMPA assessed as compound degradation
- Assay type: physicochemical
- condition.description: read-out: Activity
measurement.type: degraded (%)

>>> print(df.to_string())
                              line_notation  scale_unit  assay_value
0  CC(=O)OC[C@H]1O[C@@H](S(N)(=O)=O)[C@H](OC(C)=O)[C@@H](OC(C)=O)[C@@H]1OC(C)=O           %           35

* * *

Assay system UniProt Q16790; read-out recorded as pKi.
pKi: −log10 of the molar value.
measurement.type: pKi

line.notation	assay.value
NS(=O)(=O)[C@@H]1O[C@H](CO)[C@H](O)[C@H](O)[C@H]1O	5.38
CC(=O)OC[C@H]1O[C@@H](S(N)(=O)=O)[C@H](OC(C)=O)[C@@H](OC(C)=O)[C@H]1OC(C)=O	5.39
COC(=O)[C@H]1O[C@@H](S(N)(=O)=O)[C@H](OC(C)=O)[C@@H](OC(C)=O)[C@@H]1OC(C)=O	5.38
NS(=O)(=O)[C@@H]1O[C@H](CO)[C@@H](O)[C@H](O)[C@H]1O	5.39
CC(=O)OC[C@H]1O[C@@H](S(N)(=O)=O)[C@H](OC(C)=O)[C@@H](OC(C)=O)[C@@H]1O[C@H]1O[C@H](COC(C)=O)[C@@H](OC(C)=O)[C@H](OC(C)=O)[C@H]1OC(C)=O	5.39
CC(=O)OC[C@H]1O[C@@H](O[C@H]2[C@H](OC(C)=O)[C@@H](OC(C)=O)[C@H](S(N)(=O)=O)O[C@@H]2COC(C)=O)[C@H](OC(C)=O)[C@@H](OC(C)=O)[C@H]1OC(C)=O	5.39
NS(=O)(=O)[C@@H]1O[C@H](CO)[C@@H](O[C@H]2O[C@H](CO)[C@@H](O)[C@H](O)[C@H]2O)[C@H](O)[C@H]1O	5.37

* * *

- measurement.description: Apparent effective permeability by PAMPA method
- Assay type: ADME
- condition.description: read-out: permeability
Measured Papp by item

compound	Papp
NS(=O)(=O)[C@@H]1O[C@H](CO)[C@@H](O)[C@H](O)[C@H]1O	< 0.4 ×10⁻⁶ cm/s
CC1(C)O[C@@H]2[C@@H](CO[C@@]3(COS(N)(=O)=O)OC(C)(C)O[C@@H]23)O1 [TOPIRAMATE]	0.54 ×10⁻⁶ cm/s
CC(=O)Nc1nnc(S(N)(=O)=O)s1 [ACETAZOLAMIDE]	< 0.15 ×10⁻⁶ cm/s
CC(=O)OC[C@H]1O[C@@H](S(N)(=O)=O)[C@H](OC(C)=O)[C@@H](OC(C)=O)[C@@H]1OC(C)=O	< 0.1 ×10⁻⁶ cm/s
NS(=O)(=O)[C@@H]1O[C@H](CO)[C@@H](O[C@H]2O[C@H](CO)[C@@H](O)[C@H](O)[C@H]2O)[C@H](O)[C@H]1O	< 0.5 ×10⁻⁶ cm/s
CC(=O)OC[C@H]1O[C@@H](S(N)(=O)=O)[C@H](OC(C)=O)[C@@H](OC(C)=O)[C@@H]1O[C@H]1O[C@H](COC(C)=O)[C@@H](OC(C)=O)[C@H](OC(C)=O)[C@H]1OC(C)=O	< 0.02 ×10⁻⁶ cm/s
